Data provenance is patent US20240101572A1.

System: full-length human PLD2 (Homo sapiens (Human), UniProt O14939)
Sequence (O14939 whole entry): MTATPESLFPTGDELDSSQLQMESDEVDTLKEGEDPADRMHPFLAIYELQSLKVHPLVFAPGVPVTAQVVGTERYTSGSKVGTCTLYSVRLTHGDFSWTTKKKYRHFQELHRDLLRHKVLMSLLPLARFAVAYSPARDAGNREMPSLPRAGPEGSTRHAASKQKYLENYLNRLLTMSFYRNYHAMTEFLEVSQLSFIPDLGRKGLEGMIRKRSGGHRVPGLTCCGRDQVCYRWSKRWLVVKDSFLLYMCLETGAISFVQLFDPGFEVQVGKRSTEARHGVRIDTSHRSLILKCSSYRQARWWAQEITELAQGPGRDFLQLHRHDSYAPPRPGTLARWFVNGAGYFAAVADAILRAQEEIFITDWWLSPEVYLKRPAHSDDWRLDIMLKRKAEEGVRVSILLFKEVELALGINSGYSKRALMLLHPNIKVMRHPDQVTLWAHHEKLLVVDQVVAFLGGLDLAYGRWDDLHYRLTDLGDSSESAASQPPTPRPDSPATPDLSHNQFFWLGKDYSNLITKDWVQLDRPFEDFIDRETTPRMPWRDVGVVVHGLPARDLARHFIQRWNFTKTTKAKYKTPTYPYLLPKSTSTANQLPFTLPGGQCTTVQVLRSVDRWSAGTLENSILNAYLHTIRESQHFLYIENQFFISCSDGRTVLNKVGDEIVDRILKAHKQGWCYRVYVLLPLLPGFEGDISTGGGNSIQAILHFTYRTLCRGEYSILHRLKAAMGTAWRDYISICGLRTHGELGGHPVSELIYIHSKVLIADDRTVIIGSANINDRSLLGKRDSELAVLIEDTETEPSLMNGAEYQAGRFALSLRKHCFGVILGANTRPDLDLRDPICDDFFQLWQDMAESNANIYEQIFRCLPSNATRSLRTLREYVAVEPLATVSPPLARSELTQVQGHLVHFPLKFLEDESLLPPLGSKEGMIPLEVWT
Run description: Evaluation of human PLD2 enzyme inhibitory activity (Amplex Red / choline oxidase fluorescence)
Format: biochemical
Condition set: full-length human PLD2 enzyme; read-out: PLD2 IC50
pIC50: −log10 of the molar value.

- Molecule: "C[C@@H](C[C@H]1CC[C@]2(CC1)OC(=O)NN=C2c1ccc(F)cc1Br)NC(=O)C1CCC(=O)N1 (mixture of isomers)"
  Rel: "="
  pIC50: 6.80
- Molecule: "[2H]C([2H])([C@H](C)NC(=O)C(=O)NC)N1CCC2(CC1)OC(=O)NN=C2c1ccc(F)cc1Br"
  Rel: ">"
  pIC50: 8.00
- Molecule: "Cc1cc(C(=O)N[C@@H](C)C[C@H]2CC[C@]3(CC2)OC(=O)NN=C3c2cnc(N3CCOCC3)cc2C)[nH]n1"
  Rel: ">"
  pIC50: 8.00
- Molecule: "Cc1cc(C(=O)N[C@@H](C)CN2CCC3(CC2)OC(=O)NN=C3c2ccc(C#N)cc2Br)on1"
  Rel: "="
  pIC50: 7.60

---

System: UniProt:O14939
Run description: Evaluation of human PLD2 enzyme inhibitory activity (Amplex Red / choline oxidase fluorescence)
Type: biochemical
Condition set: full-length human PLD2 enzyme; read-out: PLD2 IC50
IC50: recorded values
Reported metric: IC50

- Structure as smiles: "CNC(=O)C(=O)N[C@@H](C)C[C@H]1CC[C@]2(CC1)OC(=O)NN=C2c1cccc(OC(F)F)c1Br"
  Reported metric: "IC50"
  Value measured: "< 10 nM"
- Structure as smiles: "CNC(=O)C(=O)N[C@@H](C)C[C@H]1CC[C@]2(CC1)OC(=O)NN=C2c1cnc(N2CC(F)(F)C2)cc1C"
  Reported metric: "IC50"
  Value measured: "< 10 nM"
- Structure as smiles: "CNC(=O)C(=O)N[C@@H](C)C[C@H]1CC[C@]2(CC1)OC(=O)NN=C2c1cc(C(=O)NC)ccc1Br"
  Reported metric: "IC50"
  Value measured: "< 10 nM"
- Structure as smiles: "CNC(=O)C(=O)N[C@@H](C)C[C@H]1CC[C@]2(CC1)OC(=O)NN=C2c1cc(C(=O)N2CCC(F)(F)C2)ccc1Br"
  Reported metric: "IC50"
  Value measured: "< 10 nM"

---

System: UniProtKB Q13393
Sequence (Q13393 other isoform, or with tags, fused parts or gaps): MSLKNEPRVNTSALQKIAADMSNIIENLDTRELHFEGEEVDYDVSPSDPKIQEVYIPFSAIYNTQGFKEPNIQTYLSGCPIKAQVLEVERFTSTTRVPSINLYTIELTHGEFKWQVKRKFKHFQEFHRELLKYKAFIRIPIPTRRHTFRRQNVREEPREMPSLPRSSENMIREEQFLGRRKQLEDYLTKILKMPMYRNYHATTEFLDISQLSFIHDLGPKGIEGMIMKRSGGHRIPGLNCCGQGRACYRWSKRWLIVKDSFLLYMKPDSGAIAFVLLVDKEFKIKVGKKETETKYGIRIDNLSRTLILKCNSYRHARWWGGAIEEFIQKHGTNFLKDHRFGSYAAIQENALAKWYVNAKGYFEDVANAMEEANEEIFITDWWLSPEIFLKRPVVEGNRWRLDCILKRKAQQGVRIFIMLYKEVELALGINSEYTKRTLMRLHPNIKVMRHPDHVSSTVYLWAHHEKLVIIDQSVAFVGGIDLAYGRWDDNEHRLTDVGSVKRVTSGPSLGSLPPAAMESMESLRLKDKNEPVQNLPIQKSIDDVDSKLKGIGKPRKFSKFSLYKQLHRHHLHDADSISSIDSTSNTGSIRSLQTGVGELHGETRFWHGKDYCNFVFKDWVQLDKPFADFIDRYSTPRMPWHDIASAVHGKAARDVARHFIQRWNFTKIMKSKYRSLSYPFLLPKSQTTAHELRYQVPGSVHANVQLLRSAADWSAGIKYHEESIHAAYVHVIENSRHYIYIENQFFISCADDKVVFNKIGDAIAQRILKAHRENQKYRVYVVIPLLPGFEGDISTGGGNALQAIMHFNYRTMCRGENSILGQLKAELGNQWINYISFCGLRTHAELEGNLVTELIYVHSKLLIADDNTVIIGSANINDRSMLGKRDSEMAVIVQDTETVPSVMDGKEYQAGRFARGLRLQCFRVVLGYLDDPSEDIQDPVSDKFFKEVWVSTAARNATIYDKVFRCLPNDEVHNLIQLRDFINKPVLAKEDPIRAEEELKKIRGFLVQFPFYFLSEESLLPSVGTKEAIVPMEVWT
Run description: Evaluation of human PLD1 enzyme inhibitory activity (Amplex Red / choline oxidase fluorescence)
Type: biochemical
Condition set: full-length human PLD1 enzyme; read-out: PLD1 IC50
Description: A method for measuring human PLD1 enzyme inhibitory activity using an enzyme in which a FLAG-tag is added to the N-terminus of full-length human PLD1 (1-1036 amino acids) is shown below. DNA fragment in which a FLAG-tag sequence is added to the 5′-end of full-length human PLD1 was amplified by PCR method, using commercially available human PLD1 gene (Promega KK) as a template. […]
Reported metric: log10 IC50 (log10 of the value in nM)

- Compound: "C[C@@H](C[C@H]1CC[C@]2(CC1)OC(=O)NN=C2c1cc(C(C)(C)O)ccc1Br)NC(=O)C(=O)NC1CC1 [Example 2-045]"
  log10 IC50: 1.26
- Compound: "CNC(=O)C(=O)N[C@@H](C)C[C@H]1CC[C@]2(CC1)OC(=O)NN=C2c1cc(C(C)(C)O)ccc1Br [Example 2-026]"
  log10 IC50: 1.08
- Compound: "Cc1cc(C(=O)N[C@@H](C)C[C@H]2CC[C@]3(CC2)OC(=O)NN=C3c2ccc(F)cc2Cl)[nH]n1 [Example 45]"
  log10 IC50: 1.43
- Compound: "C[C@@H](CN1CCC2(CC1)OC(=O)NN=C2c1ccc(F)cc1Br)NC(=O)c1cc2cc(F)ccc2[nH]1 [Example 2]"
  log10 IC50: 1.30
- Compound: "CNC(=O)C(=O)N[C@@H](C)C[C@H]1CC[C@]2(CC1)OC(=O)NN=C2c1cc(C(=O)N(C)C)ccc1Br [Example 2-036]"
  log10 IC50: 1.23
- Compound: "CNC(=O)C(=O)N[C@@H](C)C[C@H]1CC[C@]2(CC1)OC(=O)NN=C2c1cc(C#N)ccc1C [Example 287]"
  log10 IC50: 1.11
- Compound: "CNC(=O)C(=O)N[C@@H](C)CN1CCC2(CC1)OC(=O)NN=C2c1cn(C)nc1I [Example 2-043]"
  log10 IC50: 1.52
- Compound: "COC(=O)/C=C/C(=O)N[C@@H](C)CN1CCC2(CC1)OC(=O)NN=C2c1cc(C#N)ccc1Br [Example 2-024]"
  log10 IC50: 1.66
- Compound: "Cc1cc(C(=O)N[C@@H](C)CN2CCC3(CC2)OC(=O)NN=C3c2ccc(S(C)(=O)=O)cc2Cl)[nH]n1 [Example 128]"
  log10 IC50: 2.27
- Compound: "C[C@@H](C[C@H]1CC[C@]2(CC1)OC(=O)NN=C2c1ccc(S(C)(=O)=O)cc1Br)NC(=O)c1ccccc1 [Example 49]"
  log10 IC50: 1.49
- Compound: "CNC(=O)C(=O)N[C@@H](C)C[C@H]1CC[C@]2(CC1)OC(=O)NN=C2c1ccc(F)cc1C(C)C [Example 133]"
  log10 IC50: 1.46
- Compound: "C[C@@H](C[C@H]1CC[C@]2(CC1)OC(=O)NN=C2c1cc(OCC(F)(F)F)ccc1Br)NC(=O)c1cnn(C)c1 [Example 305]"
  log10 IC50: 1.18
- Compound: "COc1cc(C)c(C2=NNC(=O)O[C@]23CC[C@@H](C[C@H](C)NC(=O)c2cc(C)n[nH]2)CC3)cn1 [Example 160]"
  log10 IC50: 1.41
- Compound: "CNC(=O)C(=O)N[C@@H](C)CN1CCC2(CC1)OC(=O)NN=C2c1cc(C(=O)NC)ccc1Br [Example 2-037]"
  log10 IC50: 1.63
- Compound: "COc1cc(C)c(C2=NNC(=O)O[C@]23CC[C@@H](C[C@H](C)NC(=O)N2CCc4cccnc4C2)CC3)cn1 [Example 258]"
  log10 IC50: 2.27
- Compound: "Cc1cc(C(=O)N[C@@H](C)C[C@H]2CC[C@]3(CC2)OC(=O)NN=C3c2ccc(Br)cc2)[nH]n1 [Example 22]"
  log10 IC50: 1.82
- Compound: "C[C@@H](C[C@H]1CC[C@]2(CC1)OC(=O)NN=C2c1cc(C#N)ccc1Br)NC(=O)c1ncon1 [Example 293]"
  log10 IC50: 2.10
- Compound: "CNC(=O)C(=O)N[C@@H](C)CN1C[C@H]2CC[C@@H](C1)[C@@]21OC(=O)NN=C1c1ccc(F)cc1Cl [Example 196]"
  log10 IC50: 1.43
- Compound: "CNC(=O)C(=O)N[C@@H](C)C[C@H]1CC[C@]2(CC1)OC(=O)NN=C2c1ccc(C#N)cc1Cl [Example 175]"
  log10 IC50: 1.32
- Compound: "Cc1cc(C(=O)NC(C)CN2CCC3(CC2)OC(=O)NN=C3c2cccc(F)c2Br)[nH]n1 (centres unmarked) [Example 2-031]"
  log10 IC50: 1.28
- Compound: "C[C@@H](C[C@H]1CC[C@]2(CC1)OC(=O)NN=C2c1ccc(OCC(C)(C)O)cc1Br)NC(=O)c1cc(Cl)no1 [Example 131]"
  log10 IC50: 1.00
- Compound: "C[C@@H](CN1CCC2(CC1)OC(=O)NN=C2c1cc(C#N)ccc1Cl)NC(=O)[C@H](O)C(F)(F)F [Example 2-009]"
  log10 IC50: 3.33

---

System: full-length human PLD2 (Homo sapiens (Human), UniProt O14939)
Run description: Evaluation of human PLD2 enzyme inhibitory activity (Amplex Red / choline oxidase fluorescence)
Format: biochemical
Condition set: full-length human PLD2 enzyme; read-out: PLD2 IC50

- Compound: "C[C@@H](C[C@H]1CC[C@]2(CC1)OC(=O)NN=C2c1cc(C#N)ccc1Br)NC(=O)c1cn(C)cn1 [Example 2-071]"
  IC50: "< 10 nM"
- Compound: "Cc1cc(C(=O)N[C@@H](C)C[C@H]2CC[C@]3(CC2)OC(=O)NN=C3c2ccc(F)cc2Br)[nH]n1 [Example 12]"
  IC50: "< 10 nM"
- Compound: "C[C@@H](C[C@H]1CC[C@]2(CC1)OC(=O)NN=C2c1ccc(C(C)(C)O)cc1Br)NC(=O)c1cc(Cl)no1 [Example 97]"
  IC50: "< 10 nM"
- Compound: "CNC(=O)C(=O)N[C@@H](C)C[C@H]1CC[C@]2(CC1)OC(=O)NN=C2c1cnc(N2CCC(F)(F)C2)cc1Cl [Example 241]"
  IC50: "< 10 nM"
- Compound: "CNC(=O)C(=O)N[C@@H](C)C[C@H]1CC[C@]2(CC1)OC(=O)NN=C2c1ncccc1Br [Example 2-013]"
  IC50: "< 10 nM"
- Compound: "Cc1cc(C(=O)N[C@@H](C)C[C@H]2CC[C@]3(CC2)OC(=O)NN=C3c2cnc(N3C[C@H]4C[C@@H]3CO4)cc2C)[nH]n1 [Example 249]"
  IC50: "< 10 nM"
- Compound: "Cc1cc(C(=O)N[C@@H](C)C[C@H]2CC[C@]3(CC2)OC(=O)NN=C3c2cc(OC(F)F)ccc2C)[nH]n1 [Example 215]"
  IC50: "< 10 nM"
